I'd appreciate it if you could supply inhibition values for the items below.
# measurement-target: Nuclear receptor coactivator 1 (Homo sapiens)
# measurement-notes: SRC1 coactivator transcriptional activity inhibitors, confirmation, cell-based, luminescence, quadruplicate (AID 588820);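 note: 0% = DMSO wells and 100% = gossypol 36 µM treated wells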
# condition-context: HEK293 GAL4-SRC1 luciferase reporter, at 3.6 µM, active compounds read high
Bridge positions count the residues as written; N and C are the ends. Square brackets hold non-standard residues; d marks the D form. Peptide text beside a SMILES is read from it.
Your answer is read as %, so omit the unit and give the number.

// query inhibition value for entry CC[C@H](C)[C@@H]1NC(=O)[C@@H](CC(C)C)NC(=O)[C@H](C(C)C)NC(=O)[C@H]2CSSC[C@H](NC1=O)C(=O)N2 (cyclo(C[dC]V[dL]I); disulfide 1-2)
99.6

Entry to check: CC1CC(C)C(=O)C(C(CC2CC(=O)NC(=O)C2)OC(=O)CC(=O)c2ccccc2)C1 (centres undefined)
81.3

Then what about the compound C=C1C(=O)C23CCC4C(C)(C(=O)OC)CCCC4(C)C2CCC1(O)C3 (centres undefined) ?
-0.73

"O=C(CC(O)(C(F)(F)F)C(F)(F)F)Nc1ccc(Cl)c(Cl)c1" ?
46.4

###

# Tested on: transactivating tegument protein VP16 (Human herpesvirus 1)
# measurement-notes: VP16 transactivation reporter inhibitors, counter-screen for SRC2 inhibitor project, cell-based, luminescence, single concentration (AID 652007)
# condition-context: cell-based VP16 transactivation luciferase reporter, at 8.9 µM
Active and inactive are the calls of the source. No stated cut-off is given here; in the data, active means inhibition above about 36%; inactive means the rest.
Reply using exactly one outcome from True for active, False for inactive

// param item: "Cc1nnc(SCC(=O)N2CCC(c3noc4ccc(F)cc34)CC2)s1" ; yields the recorded call
False

Try the compound "Cc1nnc(NC(=O)c2nc(S(=O)(=O)Cc3ccccc3C)ncc2Cl)s1"
True

Same question, "CC1=CC(C)(C)Nc2ccc(OC(=O)CN3C(=O)c4ccccc4C3=O)cc21" this time
False

What about "COc1cc(NC(=O)COc2cc(O)c3c(c2)OC(C)(C)CC3=O)cc(OC)c1OC" ?
True

Follow-up entry: "COCCN=C1Sc2nc3c(C)cccc3cc2CN1Cc1ccco1"
False

###

# System: transactivating tegument protein VP16 (Human herpesvirus 1), Gal4-VP16 luciferase reporter
# measurement-notes: VP16 transactivation inhibitors, counter-screen for SRC3 inhibitor project, cell-based, luminescence, high throughput (AID 588794)
# condition-context: mammalian cells, VP16-driven luciferase reporter luminescence; at 3.6 µM
Active and inactive are the calls of the source. Cut-off read from the data, not from the text of the source: active = inhibition above about 30%; inactive = the rest.
Could you please pick one outcome from this set? active, inactive

Name the outcome recorded for "COc1cc(/C=N/NC(N)=S)cc(Br)c1OCc1ccccc1F" in the assay.
inactive

And for "CC(NC(=O)Nc1nnc(C(F)(F)F)s1)(C(F)(F)F)C(F)(F)F" ?
active

Next compound: "CCCNC1=C(N(C(C)=O)c2cccc(F)c2)C(=O)c2ccccc2C1=O"
active

Please answer likewise for "CC(C)c1ccc(-c2csc(NC(=O)c3cccs3)c2C(=O)O)cc1"
inactive

And what about the compound "COc1ccc(C(=O)Nc2nc(-c3ccc(S(=O)(=O)N4CCOCC4)cc3)cs2)cc1" ?
inactive

Do the same for "CN(C)CCNc1ccc(CO)c2oc3ccc(O)cc3c(=O)c12" please
active

Next compound: "CCOC(=O)c1c2c(n(-c3ccc(OC)cc3)c1C)C(=O)C(=O)c1ccccc1-2"
active

Also need "c1ccc(CNc2nc(-c3ccccn3)nc3ccccc23)cc1" , thanks.
active

Entry "CCOc1cccc(-n2nnnc2-c2ccc(OC)cc2)c1" please
inactive

One more compound: "COc1ccc2[nH]c(=O)c3c(c2c1)OC(C)(C)C=C3"
active

What do you have for "COc1ccc(/C=C/C(=O)c2ccc3c4c(cccc24)CC3)cc1OC" ?
inactive

Same again, this time with "CCc1ccn2cc(-c3cc(-c4ccccc4)no3)nc2c1"
inactive

# iterate: "O=C1N(c2ccccc2)C[C@@H]2C[C@@H](c3cc4ccccc4o3)N3CCC[C@@]123"
active

Repeat with "Cc1ccccc1OCCNC(=O)c1ccccc1Sc1ccccc1C#N"
inactive

What would you report for COc1cccc(/C=N/NC(=O)C(C)n2nc(C)c([N+](=O)[O-])c2C)c1O (configuration not stated) ?
inactive

"O=C(Nc1c2ccccc2nc2ccccc12)C(Cl)(Cl)Cl" , same question.
inactive

What would you report for "O=C(NNc1ccccc1)c1ccc(Cl)c(Cl)c1" ?
active

Now the compound "COc1ccc(N/N=C(/N=Nc2nc(C)cc(=O)[nH]2)c2ccccc2)cc1"
active

# repeat for COc1ccc(CCN2C(=O)C(Oc3ccccc3C)C2c2ccc3c(c2)OCO3)cc1 (configuration not stated)
inactive

Thanks! And "CC(=O)Nc1ccc(NC(=O)c2ccc(N(Cc3ccccc3C)S(C)(=O)=O)cc2)cc1" ?
inactive

Repeat with "COc1ccc(NC(=O)CN(C)C(=O)C2(c3ccccc3)CCCC2)cc1"
inactive

Now try "COc1ccc(NC(=O)c2cc(-c3cc(Cl)ccc3C)n[nH]2)cc1OC" .
active

###

# measurement-notes: StAR promoter reporter inhibitors, counter-screen for LRH-1 inverse agonist project, cell-based, luminescence, high throughput (AID 651611)
# condition-context: StAR promoter luciferase reporter counterscreen, at 3.6 µM, active compounds read high
Please mark yes if the recorded inhibition is equal to or greater than 30%, and no if it falls below.

Determine whether measured inhibition meets or exceeds 30% for "COc1ccc(/C=C2/C(=O)OCc3cc(OC)c(OC)cc32)cc1"
yes

Also check "C[n+]1c2n(c3ccccc31)N=C(c1ccc(-c3ccccc3)cc1)CS2"
yes

Next: "CC(C)NC(=O)CN1CCN(C(=O)CCl)CC1"
no

What would you report for "CCN(CC)S(=O)(=O)c1ccc(N2CCCC2)c(NC(=O)c2ccc([N+](=O)[O-])o2)c1" ?
no

And for "Cc1ccc(-c2cc(NC=O)c3ncc(-c4cnn(C)c4)n3c2)cc1" ?
yes

###

# measurement-target: Protein phosphatase methylesterase 1 (Homo sapiens) (UniProt Q9Y570)
# Sequence (Q9Y570 whole entry, looked up): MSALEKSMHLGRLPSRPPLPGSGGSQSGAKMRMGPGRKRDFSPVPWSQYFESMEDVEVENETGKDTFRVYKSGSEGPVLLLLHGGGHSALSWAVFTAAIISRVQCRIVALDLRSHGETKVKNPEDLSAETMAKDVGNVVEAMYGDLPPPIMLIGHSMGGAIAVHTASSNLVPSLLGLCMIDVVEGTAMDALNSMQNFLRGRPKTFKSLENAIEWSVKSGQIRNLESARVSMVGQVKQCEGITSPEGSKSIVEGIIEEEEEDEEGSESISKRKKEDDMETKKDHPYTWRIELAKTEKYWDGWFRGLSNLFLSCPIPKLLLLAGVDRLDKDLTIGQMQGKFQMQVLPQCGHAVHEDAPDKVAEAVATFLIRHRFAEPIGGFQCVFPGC
# measurement-notes: PME-1 inhibitor activity retest, confirmation, biochemical, fluorescence polarization, FP-Rh probe, triplicate (AID 2171);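 note: 0% = enzyme with DMSO and 100% = wells lacking PME-1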
# condition-context: recombinant PME-1, FP-Rh probe fluorescence polarization; at 5.9 µM; active compounds read high
endpoint-label: inhibition (%)
# value in %; strip the unit string

Given the molecule "COc1cc(/C=N/Nc2nc3ccccc3s2)cc([N+](=O)[O-])c1O" , what is its reported inhibition?
72.5

Ok, now Cc1ccc(NC(=O)CS(=O)CC(=O)Nc2ccccc2-c2ccc(C)o2)cc1 (stereo unspecified)
2.84

Try "N#CCC(=O)Nc1ccc(C(=O)OCc2ccccc2Oc2ccccc2)cc1" next.
-74.3

Query "CC(=O)Oc1c(I)cc(I)cc1C(=O)Nc1ccc(Cl)cc1" next
66.8

Now give it for "COc1cc(N=Nc2cccc(S(N)(=O)=O)c2)c2ccccc2c1N" too.
33.1

Another molecule to look at: "Cc1cc(N)ccc1-n1c(C)ccc1C"
6.22

###

# measurement-notes: StAR promoter reporter inhibitors, counter-screen for LRH-1 inverse agonist project, cell-based, luminescence, high throughput (AID 651611)
# condition-context: StAR promoter luciferase reporter counterscreen, at 3.6 µM
Activity calls are given as the source filed them. Cut-off read from the data, not from the text of the source: active = inhibition above about 28%; inactive = the rest.
Valid outcomes are listed here; reply with one: yes (1) = active, no (0) = inactive

Which outcome did this test record for the compound O=C1OC(Nc2cc(Br)cc3cccnc23)c2ccccc21 (centres undefined) ?
no (0)

Same question, "C=CC(=O)N1C/C(=C/c2ccccc2)C(=O)/C(=C\c2ccccc2)C1" this time
no (0)

Thanks! And "Cc1ccc(NC(=O)CCl)c(C)c1" ?
yes (1)

Now the compound "Cc1ccn2c(=O)nc(SCC(=O)Nc3ccc4c(c3)OCCO4)nc2c1"
no (0)

Similarly, "O=C(NCc1ccco1)c1ccc([N+](=O)[O-])o1" ?
no (0)

Similarly, "Cc1ccc(SCc2ccc(C(=O)NCc3ccncc3)cc2)cc1" ?
no (0)

Try this compound next: "Cc1ccnc(NC(=O)C2CCN(S(=O)(=O)c3c(C)c(C)cc(C)c3C)CC2)c1"
no (0)

Moving on to "COc1ccccc1-c1cc(NC(C)=O)c2ncc(-c3ccc(S(C)(=O)=O)cc3)n2c1"
no (0)

Now this one: CC1(C(=O)NCc2ccco2)Cc2c(-c3cccc(C(N)=O)c3)ccnc2O1 (centres undefined)
yes (1)

Entry to check: "COc1ccc(S(=O)(=O)N2CCOCC2)cc1NC(=O)CCNC(=O)c1ccc([N+](=O)[O-])cc1"
yes (1)

Please do the same for "COc1ccc(C[C@@H]2OC3(C=CC(=O)C=C3)O[C@H]2Cc2ccc(OC)cc2)cc1" as well.
yes (1)

What about this compound? "c1csc(CNc2ccc3c(c2)OCCO3)c1"
no (0)

Now give it for "Cc1cc2sc3ccc(C#CC4(O)CCCCC4)cc3c(=O)c2cc1C" too.
yes (1)

"O=C(Nc1cccc2ncccc12)c1ccc([N+](=O)[O-])o1" , same question.
no (0)

Do the same for "O=C(NCc1cccnc1)/C(=C\c1ccc(-c2ccc(Br)cc2)o1)S(=O)(=O)c1ccccc1" please
yes (1)

What would you report for "Cc1nnc(SCC(=O)Nc2ccc(N3CCN(S(C)(=O)=O)CC3)cc2)o1" ?
no (0)

What do you have for "Cc1no[n+]([O-])c1COc1ccccc1/C=N/n1nnnc1N" ?
no (0)

Next entry: COc1cc2cc(C(=O)NC(C)c3cccc4ccccc34)c(N)nc2cc1OC (centres undefined)
yes (1)

Consider next the compound "O=C(Nc1ccccc1C(=O)NCCCn1ccnc1)c1ccccc1" in the same way.
no (0)

Also, "NC(=O)COc1ccc2c3c(c(=O)oc2c1)CCCCC3" please.
no (0)

Moving on to "COCCn1c(C)cc(C2=NNC(=Nc3ccccc3)SC2)c1C"
no (0)

Same lookup for "COc1ccc(NS(=O)(=O)c2cccc(NC(=O)c3ccc(Cl)nc3)c2)cc1" , please.
yes (1)

Next entry: OC(c1ccc2ccccc2n1)c1c(Cl)cccc1Cl (centres undefined)
no (0)

Follow-up entry: "O=C1C(SCCO)=C(SCCO)C(=O)c2ccccc21"
no (0)

Would you kindly repeat that for "C=CCOc1ccccc1CN(C(=O)CCl)c1ccc2c(c1)OCO2" ?
no (0)

Now give it for "Nc1cc(Cc2ccccc2)ccc1O" too.
no (0)

Repeat with COc1ccc(OC)c(C2C3=C(COC3=O)Nc3cc4c(cc32)OCO4)c1 (centres undefined)
yes (1)

And "CCCCCCCCCn1c2c(c(=N)c3c1CCC3)CCCC2" ?
yes (1)

Item: "CN(C)c1ccc(C=c2c3ccccc3n3c2c2c([n+]3C)CCCC2)cc1"
yes (1)

# iterate: "CC(=O)N(/N=C/c1ccc([N+](=O)[O-])o1)c1nc2ccccc2c(=O)n1-c1ccccc1"
no (0)

And the next one, "CCCc1ccc(C(=O)O/N=C(\N)c2ccccn2)cc1" ?
no (0)

// same read-out, input: "CN(C)c1ccc(S(=O)(=O)N2CCCCC2)cc1NC(=O)CCNC(=O)c1ccc(Cl)cc1"
no (0)

And for CCOc1cc2c(cc1OCC)C(c1ccc(OC)cc1)N(c1ccccc1)C(=O)C2 (centres undefined) ?
no (0)

Queued: "CN(C)c1ccc(NC(=O)CN2CCC(NC(=O)C3CCCCC3)CC2)cc1"
no (0)

Next compound up: "CC(=NNC(=S)N1CCCCC1)c1ccccn1"
yes (1)

Then this compound: "CCOC(=O)c1ccc(NC(=O)c2ccc(C)c(S(=O)(=O)N3CCOCC3)c2)cc1"
yes (1)

Would you mind doing "CC(=O)N1CCN(c2cc(N3CCCC3)c(F)cc2[N+](=O)[O-])CC1" as well?
no (0)

Quick one: Cc1sc(NC(=O)c2ccco2)c(C(c2cccnc2)N2CCN(c3ccc(F)cc3)CC2)c1C (centres undefined)
no (0)

What would you report for "NC1=C(Br)C(=O)c2ncccc2C1=O" ?
yes (1)

And the next one, "COc1ccc(NC(=O)CN2C(=O)NC3(CCCC3)C2=O)cc1Cl" ?
no (0)

"O=C(Nc1cccc(NC(=O)c2ccccc2Cl)c1)c1ccc([N+](=O)[O-])o1" ?
yes (1)

Then this compound: "O=C(NCc1ccccc1)c1cccc(NC(=O)c2ccccc2)c1"
yes (1)

Next compound up: "CCNc1nc(-c2sc(NC(=O)C(C)(C)C)nc2C)c(-n2cc(-c3ccccc3)nn2)s1"
yes (1)

// repeat for COc1ccc2c(c1OC)C(=O)N1c3ccccc3C(=O)N(c3ccccc3F)C21 (centres undefined) and report
yes (1)
